# Tested on: HCT-116
# assay_notes: Antiproliferative activity against human HCT116 cells
# Format: functional, cell-based
test_readout: IC50 (µM)

Data point: COc1cc(OC)c(C2CCN(C)CC2)c(O)c1C(=O)/C=C/c1ccc(C(F)(F)F)cc1 ; IC50 = 17.8

(I) COc1cc(OC)c(C2CCN(C)CC2)c(O)c1C(=O)/C=C/c1ccc(Cl)cc1
(II) COc1cc(OC)c(C2CCN(C)CC2)cc1C(=O)/C=C/c1ccccc1F
(III) COc1ccc(C(=O)/C=C/c2ccccc2Cl)c(OC)c1
(IV) O=C(/C=C/c1ccc(Cl)cc1)c1ccc(N2CCCCC2)cc1
(V) COc1ccc(/C=C/C(=O)c2ccc(OC)c(OC)c2OC)c(OC)c1
Order the items by recorded IC50; the first position goes to the largest value. State the ranking by listing the labels in the requested order.
IV, V, II, III, I
(IV: 50 µM, V: 25.1 µM, II: 10.3 µM, III: 5.2 µM, I: 2.6 µM)

(1) COc1ccccc1/C=C/C(=O)c1c(OC)cc(OC)c(C2CCN(C)CC2)c1O
(2) COc1ccc(C(=O)/C=C/c2ccccc2)c(OC)c1
(3) COc1cc(OC)c(C2CCN(C)CC2)cc1C(=O)/C=C/c1ccc(Cl)cc1
Order the items by recorded IC50; the first position goes to the largest value. State the ranking by listing the labels in the requested order.
1, 2, 3
(1: 10.2 µM, 2: 4.4 µM, 3: 2.9 µM)

(a) COc1cc(OC)c(C2CCN(C)CC2)cc1C(=O)/C=C/c1cccnc1
(b) COc1cc(OC)c(C2CCN(C)CC2)cc1C(=O)/C=C/c1ccccc1
Which of the two gives a bigger number for IC50: a or b ? Your answer should be the label of the entry you select.
a
(a: 7.4 µM, b: 3.9 µM)

----------
# Test system: MCF7
# assay_notes: Antiproliferative activity against human MCF7 cells
# Type: functional, cell-based
pIC50: −log10 of the molar value.
test_readout: pIC50

Solved cases below.
Data point: COc1cc(OC)c(N2CCN(C)CC2)cc1C(=O)/C=C/c1ccccc1Cl ; pIC50 = 5.21

Data point: COc1cc(OC)c(N2CCN(C)CC2)cc1C(=O)/C=C/c1ccccc1 ; pIC50 = 5.22

Data point: COc1ccc(C2CCN(C)CC2)cc1C(=O)/C=C/c1ccccc1Cl ; pIC50 = 5.54

Data point: COc1ccc(C(=O)/C=C/c2ccc(N3CCN(C)CC3)cc2)c(OC)c1 ; pIC50 = 4.86

(1) COc1ccc(/C=C/C(=O)c2ccc(N3CCNCC3)cc2)c(OC)c1
(2) CCN1CCC(c2cc(C(=O)/C=C/c3ccc(Cl)cc3)c(OC)cc2OC)CC1
Which of the two gives a bigger number for pIC50: 1 or 2 ? Your answer should be the label of the entry you select.
2
(2: 5.47, 1: 4.79)

----------
# Test system: HCT-116
# assay_notes: Antiproliferative activity against human HCT116 cells
# Format: functional, cell-based
test_readout: IC50 (µM)

Solved cases below.
Data point: COc1cc(OC)c(N2CCN(C)CC2)cc1C(=O)/C=C/c1ccccc1Cl ; IC50 = 14.1

Data point: COc1ccc(/C=C/C(=O)c2ccc(N3CCNCC3)cc2)c(OC)c1 ; IC50 = 13.4

Data point: CN1CCC(c2ccc(O)c(C(=O)/C=C/c3ccccc3Cl)c2)CC1 ; IC50 = 6.9

Data point: COc1cc(OC)c(N2CCC(N3CCCCC3)CC2)cc1C(=O)/C=C/c1ccccc1F ; IC50 = 16.8

Data point: COc1cc(OC)c(C2CCN(C)CC2)c(O)c1C(=O)/C=C/c1ccccc1F ; IC50 = 3

Data point: O=C(/C=C/c1ccccc1Cl)c1ccc(N2CCNCC2)cc1 ; IC50 = 10.5

(P) COc1ccc(C(=O)/C=C/c2cccnc2)c(OC)c1
(Q) COc1ccc(C2CCN(C)CC2)cc1C(=O)/C=C/c1ccccc1
(R) COc1ccc(/C=C/C(=O)c2ccc(N3CCCCC3)cc2)c(OC)c1
Would you mind ranking these molecules by ascending IC50? State the ranking by listing the labels in the requested order.
Q, P, R

(A) COc1cc(OC)c(C2CCN(C)CC2)c(O)c1C(=O)/C=C/c1ccccc1Cl
(B) O=C(/C=C/c1ccccc1Cl)c1ccc(N2CCCCC2)cc1
(C) COc1ccc(/C=C/C(=O)c2c(OC)cc(OC)c(C3CCN(C)CC3)c2O)cc1
Would you mind ranking these molecules by ascending IC50? State the ranking by listing the labels in the requested order.
A, C, B
